Test system: HCT-15
metric name: GI50

* C/C(CN1C(=O)c2ccccc2C1=O)=N\NS(=O)(=O)c1ccccc1 | > 100 µM
* CC(C)(CO)NC(=O)Nc1c(C(F)(F)F)cc(-c2ccccc2)[nH]c1=O | > 100 µM
* COc1cc2c(cc1O)CC13CCC(=O)N1CCc1cc(OC)c(O)c-2c13 (stereo not given) | > 68.1 µM
* CC(=O)NC1C(OC2C(CO)OC(OCC3OC(n4ccc(N)nc4=O)C(O)C3O)C(NC(C)=O)C2O)OC(CO)C(O)C1O (stereo not given) | > 100 µM
* Fc1ccc(C2NC(=S)NC3=C2CCOc2c3ccc3ccccc23)cc1 (stereo not given) | 18.7 µM
* NN/C(Cc1ccccc1)=N/NC(N)=S | 72.6 µM
* N/N=C(/C(=O)Nc1cccc(Cl)c1)C(C(=O)c1ccc(O)cc1O)C1OC(=O)c2ccccc21 (stereo not given) | > 100 µM
* C=CCCC(O)c1cc(C)c(O)c(C)c1 (stereo not given) | > 100 µM
* CCOC(=O)C1(C(=O)OCC)OC(C)=NC1(C(=O)OC)C(=O)OC | > 100 µM
* CCOP(=O)(OCC)C(C)(C)OC(=O)NC(F)(F)F | > 100 µM
